- tgt: SARS-CoV-2 main protease (M^pro or 3CL^pro) (Severe acute respiratory syndrome coronavirus 2, UniProt P0DTD1)
- measurement notes: biochemical
- run conditions: read-out: In vitro SARS-COV-2 M^pro IC50
value type: pIC50
Units for pIC50: none; it is -log10 of a concentration expressed in mol/L.

Problem: Fill in: pIC50 of O=c1cc(-c2ccc(O)c(O[C@@H]3O[C@H](CO)[C@@H](O)[C@H](O)[C@H]3O)c2)oc2cc(O)cc(O)c12 [Compound 17, luteolin-3′-O-β-D-glucoside] is ___
Result: 4.99
